experiment: Cytotoxicity against human THP1 cells assessed as cell viability at 20 uM after 48 hrs by tryphan blue dye exclusion assay relative to control; assay type: functional; conditions: THP-1, 48 h, read-out: Activity
I'd appreciate it if you could supply viability at 20 µM values for the items below.

Please review the following examples before continuing.
                              smiles_string   measured_endpoint  obs_value
0  CN1C(C(=O)/C=C/c2cn(-c3cccc([N+](=O)[O-])c3)nn2)=C(O)c2ccccc2S1(=O)=O  viability at 20 µM      92.6%
1  CN1C(C(=O)/C=C/c2cn(-c3ccccc3Br)nn2)=C(O)c2ccccc2S1(=O)=O  viability at 20 µM      94.4%
2  CN1C(C(=O)/C=C/c2cn(CC(=O)Nc3ccc(F)cc3)nn2)=C(O)c2ccccc2S1(=O)=O  viability at 20 µM      92.5%

Respectfully, I request viability at 20 µM for each entry included below.
1. CN1C(C(=O)/C=C/c2cn(-c3cccc(F)c3)nn2)=C(O)c2ccccc2S1(=O)=O
2. Cc1ccc(NC(=O)Cn2cc(/C=C/C(=O)C3=C(O)c4ccccc4S(=O)(=O)N3C)nn2)cc1
3. CN1C(C(=O)/C=C/c2cn(CC(=O)Nc3ccccc3)nn2)=C(O)c2ccccc2S1(=O)=O
4. CN1C(C(=O)/C=C/c2cn(-c3ccc(F)c(Cl)c3)nn2)=C(O)c2ccccc2S1(=O)=O
5. COc1ccc(-n2cc(/C=C/C(=O)C3=C(O)c4ccccc4S(=O)(=O)N3C)nn2)cc1
6. CN1C(C(=O)/C=C/c2cn(CC(=O)NC3CCCCC3)nn2)=C(O)c2ccccc2S1(=O)=O
7. Cc1ccc(-n2cc(/C=C/C(=O)C3=C(O)c4ccccc4S(=O)(=O)N3C)nn2)cc1
8. CN1C(C(=O)/C=C/c2cn(CC(=O)Nc3ccc(C(F)(F)F)cc3)nn2)=C(O)c2ccccc2S1(=O)=O

1: 93%; 2: 97%; 3: 96.2%; 4: 94.3%; 5: 94.4%; 6: 95.2%; 7: 94.3%; 8: 95.1%

Measured viability at 20 µM, CN1C(C(=O)/C=C/c2cn(-c3ccc(F)cc3)nn2)=C(O)c2ccccc2S1(=O)=O : 95.3%

---

assay: Cytotoxicity against human THP1 cells assessed as cell viability at 20 uM after 48 hrs by tryphan blue dye exclusion assay relative to control; assay type: functional; details: THP-1, 48 h, read-out: Activity
MEASURED_ENDPOINT: viability at 20 µM (%)
Numbers only, in %.

Answered cases to consult:
>>> print(df.to_string())
                              smiles_string  value_unit  obs_value
0  CN1C(C(=O)/C=C/c2cn(-c3cccc(C(F)(F)F)c3)nn2)=C(O)c2ccccc2S1(=O)=O           %       93.8
1  CN1C(C(=O)/C=C/c2cn(-c3ccc(F)cc3F)nn2)=C(O)c2ccccc2S1(=O)=O           %       96.2
2  COc1ccc(NC(=O)Cn2cc(/C=C/C(=O)C3=C(O)c4ccccc4S(=O)(=O)N3C)nn2)cc1           %       94.5

Consider the following items and state reported viability at 20 µM for each.
1. CN1C(C(=O)/C=C/c2cn(-c3cc([N+](=O)[O-])ccc3Cl)nn2)=C(O)c2ccccc2S1(=O)=O
2. CN1C(C(=O)/C=C/c2cn(-c3ccccc3F)nn2)=C(O)c2ccccc2S1(=O)=O
3. CN1C(C(=O)/C=C/c2cn(-c3ccc([N+](=O)[O-])cc3)nn2)=C(O)c2ccccc2S1(=O)=O
4. CN1C(C(=O)/C=C/c2cn(-c3cccc(Cl)c3)nn2)=C(O)c2ccccc2S1(=O)=O
5. CN1C(C(=O)/C=C/c2cn(CC(=O)Nc3ccc(Cl)c(C(F)(F)F)c3)nn2)=C(O)c2ccccc2S1(=O)=O
6. CN1C(C(=O)/C=C/c2cn(-c3ccc(C(F)(F)F)cc3)nn2)=C(O)c2ccccc2S1(=O)=O
7. CN1C(C(=O)/C=C/c2cn(CC(=O)Nc3cccc(Cl)c3)nn2)=C(O)c2ccccc2S1(=O)=O
8. CN1C(C(=O)/C=C/c2cn(CC(=O)Nc3cccc(F)c3)nn2)=C(O)c2ccccc2S1(=O)=O

1: 94.3; 2: 96.1; 3: 93; 4: 96; 5: 94.3; 6: 96.6; 7: 98.2; 8: 96.5
